Value source: patent US20080004306A1

- tested_on: hASIC1a (Homo sapiens)
- Construct: expressed in transfected cells; host or cells: Xenopus laevis oocytes, nuclear microinjection of an expression vector such as pCDNA3
- test_description: Whole cell patch clamp in HEK293 cells transfected with hASIC1a (Example 2)
- Format: cell-based
- condition_info: six point dose-response, whole cell patch clamp (FIG. 1B), read-out: IC50, inhibition of acid-induced hASIC1a activity
measure_name: pIC50
Give bare numbers, as −log10 of the molar value.

Look at this compound and give its reported pIC50. "CCN1CCc2c(-c3ccccc3)cc3c(c2C1)NC(=O)C3=CN"
4.82

----------
- tested_on: hASIC1a (Homo sapiens, UniProt P78348)
- Construct: expressed in transfected cells; host or cells: Xenopus laevis oocytes, nuclear microinjection of an expression vector such as pCDNA3
- Sequence (P78348 whole entry): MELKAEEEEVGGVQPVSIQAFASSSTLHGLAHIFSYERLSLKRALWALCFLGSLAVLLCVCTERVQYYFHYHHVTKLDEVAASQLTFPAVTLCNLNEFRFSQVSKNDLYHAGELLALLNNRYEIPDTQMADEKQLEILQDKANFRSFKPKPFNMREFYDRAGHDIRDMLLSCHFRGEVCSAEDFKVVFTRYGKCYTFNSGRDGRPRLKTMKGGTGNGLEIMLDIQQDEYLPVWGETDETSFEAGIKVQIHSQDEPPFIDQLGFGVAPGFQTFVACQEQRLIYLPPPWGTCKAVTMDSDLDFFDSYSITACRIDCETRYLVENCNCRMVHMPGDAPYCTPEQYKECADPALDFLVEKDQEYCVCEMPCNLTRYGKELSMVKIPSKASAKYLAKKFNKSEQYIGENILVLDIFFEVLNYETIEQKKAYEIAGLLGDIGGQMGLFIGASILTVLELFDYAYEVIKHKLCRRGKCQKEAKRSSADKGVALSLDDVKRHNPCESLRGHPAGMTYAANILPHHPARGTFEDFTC
- test_description: Two-electrode voltage clamp in Xenopus laevis oocytes expressing gated ion channels (Xo, Example 3)
- Assay type: cell-based
- condition_info: 50 μM; Xenopus laevis oocytes, two-electrode voltage clamp; read-out: % inh. at 50 μM (Xo)
measure_name: inhibition at 50 µM

Previously resolved entries follow.
CCN1CCc2c(-c3ccccc3)cc3c(c2C1)NC(=O)C3SC (centres unmarked): 25 to 45%
CCN1CCc2c(-c3ccccc3)cc3c(c2C1)NC(=O)C3: < 25%
CCN1CCc2c(-c3ccccc3)cc3c(c2C1)NC(=O)C3=CNC: < 25%
CCN1CCc2c(-c3ccccc3)cc3c(c2C1)NC(=O)C3=CNCCO: < 25%

In the following, a different molecule is considered.
inhibition at 50 µM for "CCN1CCc2c(-c3ccccc3)cc3c(c2C1)NC(=O)C3=CN" ?
> 50%
